molecular target: thymidylate synthase (TS) (Mus musculus, UniProt P07607); experiment: TS activity in intact L1210/0 cells (tritium release); assay type: cell-based, murine; conditions: intact L1210/0 cells, 30 min exposure; read-out: IC50 Tritium release from dUrd*
Sequence (P07607 whole entry): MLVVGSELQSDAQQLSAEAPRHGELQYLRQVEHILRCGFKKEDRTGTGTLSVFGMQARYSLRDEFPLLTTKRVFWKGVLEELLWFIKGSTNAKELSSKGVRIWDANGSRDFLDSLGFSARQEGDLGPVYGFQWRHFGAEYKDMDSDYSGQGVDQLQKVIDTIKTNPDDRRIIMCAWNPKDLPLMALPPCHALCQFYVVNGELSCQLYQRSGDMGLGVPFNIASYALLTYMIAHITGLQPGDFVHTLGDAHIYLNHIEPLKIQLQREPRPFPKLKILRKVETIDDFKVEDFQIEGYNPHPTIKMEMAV
REPORTED PROPERTY: IC50

>>> measured("C[C@H](NP(=O)(OC[C@H]1O[C@@H](n2cc(F)c(=O)[nH]c2=O)CC1O)Oc1cccc2ccccc12)C(=O)OCc1ccccc1 (some centres unmarked)")
"160 nM"
>>> measured("O=c1[nH]c(=O)n([C@H]2C[C@H](O)[C@@H](CO)O2)cc1F [5-FdUrd, 5-fluoro-2′-deoxyuridine, reference compound]")
"0.9 nM"
